Biological target: Neurogenic locus notch homolog protein 2 (Homo sapiens)
Assay: Notch2 binders on small-molecule microarrays, primary screen, biochemical, small-molecule microarray, 635 nm fluorescence, stem cell growth factors (AID 1073)
Details: Notch2 binding, higher = more signal
Category scheme (composite z-score): low = under -0.02, mid = from -0.02 up to 0.8, high = 0.8 and over

Band assignment needed for CCOC(=O)C[C@H]1[C@H](OC(=O)c2cc3ccccc3oc2=O)[C@@H](NC(=O)c2ccc(-c3ccccc3)cc2)c2cc(OCCCO)ccc2N1C(=O)c1ccccc1 please.
high

Entry C=CCC(OC(C)=O)[C@@H]1[C@@H](N(Cc2cccc3ccccc23)C(=O)Cc2ccc(F)cc2)c2cc(OCCCO)ccc2N1C(=O)c1ccc2ccccc2n1 (some centres undefined) please
mid

Entry OCC1CC(c2ccccc2)=NO1 (centres undefined) please
low

Entry CC(C)[Si](C#C[Si](C(C)C)(C(C)C)C(C)C)(O[C@H](C)c1cn([C@H](CO)Cc2ccccc2)nn1)C(C)C please
mid

Entry C=CC1c2cc(O)c(OC)cc2CCN1Cc1cc2c(cc1Br)OCO2 (centres undefined) please
low

Entry CCCC[C@@H](O)C1=C(COc2ccccc2)C[C@H]2C(=O)N(C)C(=O)[C@H]2[C@H]1CO please
low

Entry NCCCCCNC(=O)[C@@H]1C[C@@H]2C(=O)NCC(=O)N2[C@@H]1c1cccc(OCCO)c1 please
mid

Entry CCOC(=O)C[C@H]1[C@H](OC(=O)c2ccccc2-c2ccccc2)[C@@H](NC(=O)C2CCCCC2)c2cc(OCCCO)ccc2N1C(=O)Cc1ccc(OC)cc1 please
mid

Entry [N-]=[N+]=NCc1ccccc1C[C@@]1(C(=O)N2CCCCC2)N=C(c2ccc(OCCCO)cc2)O[C@@H]1c1ccccc1 please
high

Entry COc1ccc([Si](C)(C)[C@@H]2[C@@H](CCn3cc([C@H](O)c4ccccc4)nn3)O[C@]3(C(=O)N(Cc4ccc(N5CCC5=O)cc4)c4ccccc43)[C@H]2C)cc1 please
low

Entry C=CCOC(=O)[C@H]1[C@@H]2C(=O)O[C@@H](c3ccccc3)[C@@H](c3ccccc3)N2[C@@H](c2ccc(OCCOC(=O)[C@H]3C[C@H]4C(=O)N[C@@H](CC(C)C)C(=O)N4[C@H]3c3cccc(OCCO)c3)cc2)[C@]12C(=O)Nc1ccc(I)cc12 please
high

Entry O=C1C2C=CC(C(O)c3ccc(Br)cc3)N(Nc3ccccc3F)C2C(=O)N1c1ccccc1 (centres undefined) please
mid

Entry COCCOC(=O)N1C(=O)[C@@]2(c3cc(C#CC4=CCCCC4)ccc31)[C@H](C(N)=O)[C@H]1C(=O)O[C@H](c3ccccc3)[C@H](c3ccccc3)N1[C@@H]2c1ccccc1OCCO please
high

* * *

Kindly state composite z-score for each of the entries shown.
Test: compound binding in COS7 lysate, probe aLAP1, primary screen, cell lysate, small-molecule microarray (AID 1124);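 note: lysate comes from COS7 cells expressing LAP1 and is applied at 0.3 µg/mL; score merges spot fluorescence near 667 nm with signal-to-noise over triplicate slides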
Conditions: probe aLAP1, fluorescence, higher = more signal
Could you keep your reply to the number by itself?

May I ask what composite z-score has been recorded for CC(=O)NCCCC[C@@H]1NC(=O)[C@@H]2C[C@H](C(=O)NCCCC[N+](C)(C)C)[C@H](c3ccc(O)cc3)N2C1=O ?
-0.111

Entry CCOC(=O)C[C@H]1[C@H](OC(=O)c2cc3ccccc3oc2=O)[C@@H](NC(=O)c2ccc(-c3ccccc3)cc2)c2cc(OCCCO)ccc2N1C(=O)c1ccccc1 please
-0.0433

Entry O=C1OCC=C[C@H]2OC34C=CCN(c5ccc(Cl)cc5)C(=O)[C@H]3N(CCO)C(=O)[C@@H]4[C@@H]12 (stereo partly drawn) please
0.0653

Entry COC(=O)[C@@]1(Cc2ccccc2)[C@H]2c3cc(C(=O)N(C)C)n(CCN4CNCC4=O)c3C[C@H]2CN1C(=O)c1ccccc1 please
1.26

Entry C=C(C)c1cc2c(c(CCCCCC)n1)[Si](C(C)C)(C(C)C)OC2 please
-0.603

Entry CCOC(=O)C1CCCCN1 (stereo not drawn) please
0.471

Entry O=C1O[C@H](c2ccccc2)[C@H](c2ccccc2)N2[C@H]1[C@@H](C(=O)Nc1nc3ccccc3s1)[C@]1(C(=O)Nc3ccc(C#CCCO)cc31)[C@H]2c1ccc(O)cc1 please
0.278

Entry COCCOC(=O)N1C(=O)[C@@]2(c3cc(C#CCCO)ccc31)[C@H](C(=O)Nc1nc3ccccc3s1)[C@H]1C(=O)O[C@H](c3ccccc3)[C@H](c3ccccc3)N1[C@@H]2c1ccccc1OCCO please
0.627

Entry CCCCCCc1nc(C2CC2)cc2c1[Si](C(C)C)(C(C)C)O[C@H]2c1ccccc1 please
0.649

Entry COCCOC(=O)N1C(=O)[C@@]2(c3cc(C#CCC(C(=O)OC)C(=O)OC)ccc31)[C@H](C(=O)N1CCc3cc(OC)c(OC)cc3C1)[C@H]1C(=O)O[C@H](c3ccccc3)[C@H](c3ccccc3)N1[C@@H]2c1ccc(OCCO)cc1 please
0.519

Entry C=C(CCCC)/C(=C/C[C@@H](OC(=O)c1ccncc1)c1ccccc1OCCO)c1cnc2ccccc2c1 please
0.603

Entry CCCCCCCCCCC(O)C1C=CC2C(=O)N(C)C(=O)C2N1Nc1ccc([N+](=O)[O-])cc1[N+](=O)[O-] (stereo not drawn) please
0.141

Entry C=CCOC(=O)[C@H]1[C@@H]2C(=O)O[C@@H](c3ccccc3)[C@@H](c3ccccc3)N2[C@@H](c2ccc(OCCOC(=O)[C@@H]3C[C@@H]4C(=O)N[C@@H](CCCCN(C)C)C(=O)N4[C@@H]3c3ccc(O)cc3)cc2)[C@]12C(=O)Nc1ccccc12 please
0.949

* * *

Kindly state composite z-score for each of the entries shown.
Assay: binders of probe aFGF2 on microarray, primary screen, stem cell growth factor project, biochemical, small-molecule microarray, fluorescence 635/667 (AID 1067);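 note: measures binding of biotinylated aFGF2 protein to printed compounds on slides; z-score merges feature fluorescence and signal-to-noise across triplicate slides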
Conditions: higher = more signal
Could you keep your reply to the number by itself?

May I ask what composite z-score has been recorded for C=CC1c2cc(O)c(OC)cc2CCN1Cc1cc2c(cc1Br)OCO2 (configuration not stated) ?
-0.101

Entry COc1cc(OC)c(C(O)C2C=CC3C(=O)N(c4ccccc4)C(=O)C3N2Nc2ccccc2)cc1Br (configuration not stated) please
0.0393

Entry CN(C)CCCCNC(=O)[C@@H]1C[C@@H]2C(=O)N[C@@H](Cc3ccccc3)C(=O)N2[C@@H]1c1cccc(OCCO)c1 please
0.0281

Entry O=C1O[C@H](c2ccccc2)[C@H](c2ccccc2)N2[C@H]1[C@@H](C(=O)Nc1nc3ccccc3s1)[C@]1(C(=O)Nc3ccc(C#CC4(O)CCCCCC4)cc31)[C@H]2c1ccccc1OCCO please
-0.048

Entry COCCOC(=O)N1C(=O)[C@@]2(c3cc(C#Cc4ccc(OC)cc4)ccc31)[C@H](c1ccccc1OCCO)N1[C@H](c3ccccc3)[C@H](c3ccccc3)OC(=O)[C@H]1[C@@H]2C(=O)N1CCCCCCC1 please
0.903

Entry COc1ccc([Si](C)(C)[C@@H]2[C@@H](CC(=O)N(CCO)Cc3ccccc3)O[C@]3(C(=O)N(Cc4cccc(N5CCOC5=O)c4)c4ccccc43)[C@H]2C)cc1 please
-0.117

Entry CCCC[C@@H]1C[C@H]1[C@@H](NC(=O)c1ccccc1)c1ccc(C(F)(F)F)cc1 please
-0.0908

Entry CC1=C[C@@]2(CO)C(=O)[C@]3(CO3)[C@@H]1[C@H]1[C@]2(C)C=C(CO)C(=O)[C@]12CO2 please
-0.0782

Entry C=CCN1C(=O)[C@@]2(O[C@@H](CCn3cc([C@H](O)c4ccccc4)nn3)[C@H]([Si](C)(C)c3ccc(OC)cc3)[C@H]2C)c2cc(N3CCC3=O)ccc21 please
-0.0894

Entry O=C1N(Cc2ccccc2)Cc2ccccc2[C@@H]2OC(c3ccc(OCCCO)cc3)=N[C@]12CCS(=O)(=O)c1ccccc1 please
0.0247

Entry CN(C)c1ccc(C(O)C2C=CC3C(=O)N(c4ccccc4)C(=O)C3N2Nc2ccc([N+](=O)[O-])cc2)cc1 (configuration not stated) please
0.0495

Entry C=CCOC(=O)[C@H]1[C@@H]2C(=O)O[C@@H](c3ccccc3)[C@@H](c3ccccc3)N2[C@@H](c2ccc(OCCOC(=O)[C@@H]3C[C@@H]4C(=O)N[C@@H](CCCCNC(C)=O)C(=O)N4[C@@H]3c3ccc(O)cc3)cc2)[C@]12C(=O)Nc1ccc(I)cc12 please
-0.0466

Entry O=c1n(-c2ccccc2)c(=O)n2n1CC(COc1ccccc1)=C([C@H](O)CCc1ccccc1)[C@@H]2CO please
-0.141

Entry COCCOC(=O)N1C(=O)[C@@]2(c3cc(C#Cc4ccc(OC)cc4)ccc31)[C@H](c1ccc(O)cc1)N1[C@H](c3ccccc3)[C@H](c3ccccc3)OC(=O)[C@H]1[C@@H]2C(=O)N1CCCCCCC1 please
0.0177

Entry C=CCC(OC(C)=O)[C@@H]1[C@@H](N(Cc2cc3ccccc3o2)C(=O)c2ccc(C)cc2)c2cc(OCCCO)ccc2N1C(=O)Cc1ccc(OC)cc1 (some centres not stated) please
-0.0878

Entry COC(=O)c1c(CC[C@@H](CO)NC(=O)N2CCC[C@H]2Cn2cc(Cc3ccccc3)nn2)oc(C(C)=O)c1C(=O)OC please
-0.0759

Entry O=C1O[C@H](c2ccccc2)[C@H](c2ccccc2)N2[C@H]1[C@@H](C(=O)Nc1nc3ccccc3s1)[C@]1(C(=O)Nc3ccccc31)[C@H]2c1ccc(OCCO)cc1 please
-0.0734

Entry CCOC(=O)C[C@H]1[C@H](OC(=O)c2ccccc2-c2ccccc2)[C@@H](NC(=O)c2ccc(-c3ccccc3)cc2)c2cc(OCCCO)ccc2N1C(=O)c1ccc2ccccc2n1 please
-0.127

Entry COC(=O)[C@@]1(Cc2ccccc2)[C@H]2c3cc(C(=O)N(C)C)n(CCN4CNCC4=O)c3C[C@H]2CN1C(=O)c1ccccc1 please
0.539

Entry O=C1NC(=O)C2C1C=CC(C(O)c1c(F)cccc1Cl)N2Nc1ccc(Cl)cc1Cl (configuration not stated) please
0.0389

Entry CN(C)C(=O)[C@@]1(CCS(=O)(=O)c2ccccc2)N=C(c2ccc(OCCCO)cc2)O[C@H]1c1ccccc1 please
0.163

Entry COC(=O)[C@@]1(Cc2ccc(OC)cc2)[C@H]2c3cc(C(=O)N(C)C)n(C[C@H](O)CO)c3C[C@H]2CN1C(=O)c1ccccc1 please
0.263

Entry C=C(COC)/C(=C/C[C@H](OC(C)=O)c1ccc(OCCO)cc1)c1cc(C(=O)OC)ccc1OC please
-0.1

Entry O=C(NCCCCCNC(=O)/C(Cc1ccccc1)=N/O)OCc1ccccc1 please
-0.25

Entry C=CCC(OC(C)=O)[C@@H]1[C@@H](N(Cc2cc3ccccc3o2)C(=O)Cc2ccc(F)cc2)c2cc(OCCCO)ccc2N1C(=O)c1ccc2ccccc2c1 (some centres not stated) please
-0.116

Entry COC(=O)[C@@]1(Cc2ccc(OC)cc2)[C@H]2c3cc(C(=O)N(C)C)n(CCO)c3C[C@H]2CN1C(=O)c1ccccc1 please
0.152

Entry CCCCC(O)C1C=CC2C(=O)N(c3ccccc3)C(=O)C2N1Nc1ccc(C(C)C)cc1 (configuration not stated) please
0.0662
